- assayComment: AP1 Signaling Pathway (AID 357);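 further: ME-180 reporter cells stimulated with EGF at its EC50 level; on the % scale 0 is the no-effect control and ±100 the full control effect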
- cond: ME-180 AP-1-bla reporter, EGF-induced, beta-lactamase ratio, 5 h; at 17.2 µM (top of the series) unless noted
Inconclusive results are not listed.
property: activity change, negative = inhibition (%)
Could you give me the number in %? Just the number is fine.

Any idea what activity change, negative = inhibition was measured for "N#Cc1c(-c2ccccc2Cl)cc(C2CC2)nc1N" ? 4.21

GET /values?readout=activity change, negative = inhibition&item= "CCOC(=O)CSc1nc(N2CCOCC2)c2c(c1C#N)CC(C)(C)N(C)C2" -8.24

Fill blank: measured activity change, negative = inhibition of the compound "COC(=O)CCc1c(C)[nH]c(=S)[nH]c1=O" is ____. 7.36

# input compound: CC(=O)/C(C#N)=C1\NC(=O)C(Cc2ccccc2)S1 (stereo unspecified) ; wanted: its activity change, negative = inhibition 0.644

Can you share its activity change, negative = inhibition? I mean this compound: "CN(Cc1c(O)ccc2c1oc(=O)c1ccccc12)C1CCCCC1" 2.27

Requested read-out: activity change, negative = inhibition. Entry: "CCOC(=O)c1ccc(CSc2ncn[nH]2)o1" 0.882

----------
- Tested on: C2A
- assayComment: qHTS profiling for inhibitors of Plasmodium falciparum proliferation (AID 504749); further: nearly all actives have a fitted effect of over 60% in size
- cond: P. falciparum in erythrocytes, SYBR Green DNA, 72 h; series mostly up to 28.7 µM
- Method: NIH National Institute of Allergy and Infectious Diseases [NIAID] NIH Chemical Genomics Center [NCGC] […] Because mature erythrocytes lack DNA, only Plasmodium-derived DNA is detected. NCGC Assay Protocol Summary: The SYBR Green viability assay was adapted from a method described previously (Plouffe et al., 2008). […] The following morning, fluorescence intensity at 485(14) nm excitation and 535(25) nm emission wavelengths was measured on an EnVision (Perkin Elmer) plate reader. […]
Results filed as inconclusive are left out. Active and inactive are the calls of the source. The call rests on the fitted dose curve; in most records, active means well fitted inhibition curve with a large enough effect; inconclusive means small, poorly fitted or top-dose-only effect; inactive means flat fitted curve, though single readings scatter.
Could you please pick one outcome from this set? active, inactive

Outcome? "CCCC(=O)Nc1c(I)cc(I)c(C[C@H](CC)C(=O)O)c1I" inactive

What was the test verdict on CC1OC(OCC2OC(Oc3c(-c4ccc(OCCO)c(OCCO)c4)oc4cc(OCCO)cc(O)c4c3=O)C(O)C(O)C2O)[C@@H](O)C(O)C1O (stereo partly drawn) ? inactive

For Nc1nc(/C(=C/CC(=O)O)C(=O)NC2C(=O)N3C(C(=O)O)=CCSC23)cs1 (stereo not drawn) , what call appears in the results of this test? inactive

Outcome? "Oc1cc2cc(CCN3CCN(c4nsc5ccccc45)CC3)c(Cl)cc2[nH]1" inactive

Short answer needed: outcome of this test for CCC1OC(=O)C[C@H](O)C(C)[C@@H](O[C@@H]2OC(C)C(O)C(N(C)C)C2O)C(CCN2CC(C)CC(C)C2)CC(C)C(=O)/C=C/C(C)=C\[C@@H]1COC1OC(C)C(O)C(OC)C1OC (stereo partly drawn) ? active

Call for entry "C[C@@H](O)[C@@H]1C(=O)N2C(C(=O)O)=C([C@H]3CCCO3)S[C@H]12" : inactive

GET /call?item= CCC(C(=O)C(C)C(O)C(C)CCc1ccc(C)c(O)c1C(=O)O)C1OC(CC)(C2CC[C@@](O)(CC)C(C)O2)CC1C (stereo partly drawn) returns the recorded outcome of this test. active

Hello, I am checking results. What call was entered for CC(CN1CC(=O)NC(=O)C1)N1CC(=O)NC(=O)C1 (stereo not drawn) ? inactive

----------
- assayComment: Stat Signaling Pathway (AID 446);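 further: ME-180 cervical cancer cells given 40 pM IL-6 alongside compound; SIE-controlled beta-lactamase reporter measured as 460/530 nm FRET emission ratio; on the % scale 0 is the no-effect control and ±100 the full control effect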
- cond: ME-180 (cervical carcinoma) SIE beta-lactamase reporter, IL-6 stimulated, 5 h; at 17.2 µM (top of the series) unless noted
Records with an inconclusive call do not appear.
property: activity, negative = inhibition (%)
Respond with the bare value in %.

For "Cc1ccc(-c2nnc(-c3cccc(Br)c3)o2)cc1" , what is its reported activity, negative = inhibition? 12.4

Give the measured activity, negative = inhibition of "CSc1nc2sc3c(c2c2nncn12)CCC3" . -3.42

What measured activity, negative = inhibition goes with "c1coc(-c2nnc3sc(-c4cccs4)nn23)c1" ? -3.51

// activity, negative = inhibition lookup, key: "CCN1CCc2c(C#N)c(N3CCCCC3)nc(N3CCOCC3)c2C1" 18.4

Which activity, negative = inhibition value belongs to "CN=C1c2cc3c(Br)c(OC)ccc3n2CCN1C" ? 6.11

Recorded activity, negative = inhibition of CCN(CC)CCN1C(=O)C(=O)/C(=C(/O)c2c(C)[nH]c(C(=O)OC)c2C)C1c1cccc(OC)c1 (configuration not stated) , please. 5.49

GET /values?readout=activity, negative = inhibition&item= "CC(C)(C)C1=Nn2c(nnc2-c2ccccn2)SC1" 4.69

Field request: activity, negative = inhibition | item: "Cn1cccc1/C=N/n1cnnc1" 4.51

// returns reported activity, negative = inhibition for input CCOc1ccc(CC2CC(=O)NC2=O)cc1 (configuration not stated) -1.04

May I ask what activity, negative = inhibition has been recorded for CCCOc1ccc(C2/C(=C(/O)c3ccccc3)C(=O)C(=O)N2CCCN(C)C)cc1OC (configuration not stated) ? 10.3

Data request, read-out activity, negative = inhibition, for Cc1c(Cl)cccc1N1C(=O)C2ON(c3ccccc3)C(c3cccnc3)C2C1=O (configuration not stated) 0.542

Value lookup for activity, negative = inhibition; key = "COc1ccc(C(=O)Nc2ccccc2N2CCOCC2)cc1Br" -8.26

----------
- assayComment: NFAT Signaling Pathway (AID 444);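 further: carbachol stimulus at about its EC50 of 1 µM final; on the % scale 0 is the no-effect control and ±100 the full control effect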
- cond: Jurkat NFAT-bla M1, carbachol, beta-lactamase ratio, 5 h; at 17.2 µM (top of the series) unless noted
Inconclusive results are not listed.
Exercise: state measured activity change, negative = inhibition for each of the molecules provided.
Reply numerically in %, unit not repeated.

Fill blank: measured activity change, negative = inhibition of the molecule "CC1(C)Cc2c(sc3[nH]c(=S)n(Cc4ccco4)c(=O)c23)CO1" is ____. -5.17

Look at this molecule and give its reported activity change, negative = inhibition. CC12CN3CC(C)(CN(C1)C3c1ccc(Cl)cc1Cl)C2O (stereo unspecified) -12

Any idea what its activity change, negative = inhibition is? The molecule is "COc1cc(NC(=O)NC(C)(C(F)(F)F)C(F)(F)F)cc(OC)c1OC" 19.4

activity change, negative = inhibition for Cc1cc(=O)oc(C)c1C(=O)NCC(C)NC(=O)c1c(C)cc(=O)oc1C (stereo unspecified) ? 10.2

Any idea what activity change, negative = inhibition was measured for Cc1cc2c(c(=O)o1)C(CC(C)C)C(C#N)=C(N)O2 (stereo unspecified) ? 4.64

If you can, please state the reported activity change, negative = inhibition value of COc1cc(C2C(C#N)=C(N)Oc3cc(C)n(CCc4ccccc4)c(=O)c32)cc2c1OCO2 (stereo unspecified) . -4.95

What value of measured activity change, negative = inhibition is listed for "N#CC1=C(C=Nc2ccccc2O)CCC1" ? 8.46

Quick one: activity change, negative = inhibition of "O=C(c1coc(=O)c(Br)c1)N1CCOCC1" ? 21.3

Which measured activity change, negative = inhibition value corresponds to CC(C(=O)N(C)C)N(C#N)c1nc(N(C)C)nc(N(C)C)n1 (stereo unspecified) ? 2.25

Query (molecule): "C=CCn1cnc2c(c1=O)c1nc3ccccc3nc1n2-c1ccc(C)cc1" ; field requested: activity change, negative = inhibition -10.5

Bench note: what activity change, negative = inhibition did "Cc1cc(SCCC(=O)O)nc2ccccc12" show? -5.26

----------
- System: CP203
- assayComment: qHTS profiling for inhibitors of Plasmodium falciparum proliferation (AID 504749); further: nearly all actives have a fitted effect of over 60% in size
- cond: P. falciparum in erythrocytes, SYBR Green DNA, 72 h; series mostly up to 28.7 µM
Inconclusive results are not listed. Calls of active or inactive are those of the source. Calls follow the shape of the dose curve; as a rule, active = well fitted inhibition curve with a large enough effect; inconclusive = small, poorly fitted or top-dose-only effect; inactive = flat fitted curve, though single readings scatter.
Select the correct class. Options are active, inactive and nothing else.

I would be grateful if you could indicate the recorded call for "CNC1=CN(O)C(c2ccccc2)=c2cc(Cl)ccc2=N1" . active

Short answer needed: outcome of this test for "C#C[C@]1(O)CC[C@H]2[C@H]3[C@H](CC[C@@]21C)C1=C(CC(=O)CC1)C[C@@H]3C" ? inactive

# lookup: test call for OCC1O[C@@H](O[C@@H]2C(CO)OC(O)C(O)C2O)C(O)C(O)C1O (stereo not given in full) inactive

How did this test come out for CNC1C(O)C(OC2C(N)CC(N)C(OC3OC(CN)=CCC3N)C2O)OCC1(C)O (stereo not given) ? inactive

Please state the recorded outcome for this compound: OCC1OC(O)C(O)C(O)C1O (stereo not given) inactive

What outcome does the record of this test show for "Clc1ccc(CS[C@@H](Cn2ccnc2)c2ccc(Cl)cc2Cl)cc1" ? active

Outcome logged for C=CC1CN2CCC1CC2[C@@H](O)c1ccnc2ccc(OC)cc12 (stereo not given in full) in this assay: active

How was O=c1[nH]c(=O)n(C2C[C@H](O)[C@@H](CO)O2)cc1C(F)(F)F (stereo not given in full) classified in this test? inactive

Each compound tested received a call. Report the one for OC[C@@H](O)C(O[C@@H]1O[C@@H](CO)[C@H](O)[C@H](O)[C@H]1O)[C@H](O)[C@@H](O)CO (stereo not given in full) . inactive

Recorded test call requested for CC1(C)SC2C(NC(=O)C(C(=O)O)c3ccccc3)C(=O)N2C1C(=O)O (stereo not given) inactive

Origin of the recorded values: PubChem BioAssay (NCATS)
